test_target: T1, Recombinant human CD4 (R&D Systems, Cat. 10327-CD) (human, UniProt P01730 26-390, limits assumed)
T1 construct: Bought protein; also called huCD4
assay_overview: BLI (Octet Red384), purified antibody on anti-mouse Fc sensors, human CD4 100/50/25 nM, global 1:1 fit;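 note: antibodies loaded at 10 µg/mL, curves fitted across association and dissociation phases, with an unrelated mouse-derived antibody serving as internal reference control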
quantity_kind: Response

1) 75110_14I16A (antibody, V domains shown, Tested as antibody purified from AlivaMab Mouse Kappa hybridoma (human V regions, kappa light chain, mouse Fc captured by anti-mouse Fc sensors); also called 75110_14116A) VH: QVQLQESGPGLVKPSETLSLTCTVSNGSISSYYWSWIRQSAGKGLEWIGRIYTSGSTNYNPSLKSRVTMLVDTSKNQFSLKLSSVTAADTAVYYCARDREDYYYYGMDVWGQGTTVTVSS VL: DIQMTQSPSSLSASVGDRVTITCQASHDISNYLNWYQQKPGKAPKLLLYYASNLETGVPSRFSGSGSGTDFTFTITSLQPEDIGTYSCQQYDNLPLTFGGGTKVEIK
0.14
2) 75110_06E14A (antibody, V domains shown, Tested as antibody purified from AlivaMab Mouse Kappa hybridoma (human V regions, kappa light chain, mouse Fc captured by anti-mouse Fc sensors)) VH: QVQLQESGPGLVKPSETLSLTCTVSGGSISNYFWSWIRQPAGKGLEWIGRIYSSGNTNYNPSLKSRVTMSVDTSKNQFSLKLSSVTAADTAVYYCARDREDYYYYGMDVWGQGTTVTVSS VL: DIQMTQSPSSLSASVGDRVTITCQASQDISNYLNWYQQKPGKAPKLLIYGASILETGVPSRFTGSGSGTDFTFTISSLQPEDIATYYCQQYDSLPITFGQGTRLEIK
0.11
3) 75110_12H17A (antibody, V domains shown, Tested as antibody purified from AlivaMab Mouse Kappa hybridoma (human V regions, kappa light chain, mouse Fc captured by anti-mouse Fc sensors)) VH: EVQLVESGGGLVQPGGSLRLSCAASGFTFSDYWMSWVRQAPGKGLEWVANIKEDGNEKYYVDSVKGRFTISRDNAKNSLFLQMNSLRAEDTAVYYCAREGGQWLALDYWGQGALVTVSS VL: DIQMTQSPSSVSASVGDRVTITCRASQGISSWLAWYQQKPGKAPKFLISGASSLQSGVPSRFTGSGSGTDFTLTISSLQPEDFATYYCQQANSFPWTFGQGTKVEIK
0.19
